These entries and their values trace back to the nanobody polyreactivity screen of Harvey et al. (2022).

- testProtocol: yeast display, Sf9 membrane polyspecificity reagent, FACS + sequencing; frameworks hold sequencing errors
valueType: polyreactivity (PSR sort gate)

Name the reported polyreactivity (PSR sort gate) value associated with the sequence `QVQLVESGGGLVQAGGSLRLSCAASGRTFIANAMGWYRQAPGKERELVAVITLNGGSTYYADSVKGRFTISRDNAKNTVYLQMNSLKPEDSAVYYCDAGRYYNLRATHGYWRQGTQVTVSS` low polyreactivity

How about `QVHLVESGGGLVQAGGSLRLSCAASGITFYRFVLGGYRQAPGKEWELDAAISRTGGYTYYADSVKGRFTLSRDNAKNTVYLQMNSLKPVDTAVYYCAAATSTGIYDYWGQGTQVTGSS` ? high polyreactivity

How about `QVQLVESGGGLVQAGGSLRLSCAASGLIFYKYAMGWYRQAPGKERELVAAITSGGSTNYADSVKGRFTISRDNAKNTVYLQMNSLKPEDTAVYYCNADYHPYLVVRWWYPPVDYWGQGNQVTVSS` ? low polyreactivity

How about `QVQLVESGGGLVQAGGSLRLSCAASGFIFYYNAMGWYRHAPGKERELDAGISRSAGSTYYADSVKGRFTISRDNAKNSVYLHMNSLTPEDTAVYYCAARYLSYITGTSYYWGQVTQVTVSS` ? low polyreactivity

How about `QVQLVESGGGLVQAGGSLRLICDASGSTFERYALGWYRQAPGKERELVAAITWGGGSTNYADSVKGRFTISRDNEKNTVYLQMNSLNPEDTAVYYCRPLYLGGDYWGQGTQVTVSS` ? low polyreactivity

How about `QVQLVESGGGLVQAGGSLRLSCAPSGRIFFHYAMGWYRQAPGKERELVAAISRRGGNTYYADSVKGRFTISRDNAKNTVYLQMNRLKPEDTAVYYCAAQYRVGYDYWGQGTQVTVSS` ? high polyreactivity

How about `QVQLVESGGGLVQAGGSLRLSCAASGSTFVYYAMGWYRQAPGKERELVADISWSGGDTYYADSVKGRFTISRDNAKNTVYFQMNSLKPEDTAVYYCAAEWSTPSYVGFADGFEYWGQGTQVTVSS` ? low polyreactivity

How about `QVQLVEAGGGLVQAGGSLRLSCAASGRTFRWYAMGWYRQAPGKERELVAAITIGGASTYYADSVKGRFTISRDNAKNTVYLQMNSLQPEYTAVNYCNAVFVGNDYWGQGTLVTVSS` ? low polyreactivity

How about `QVQLVESGGGLVQEGGSLRLSCAASGRTFYRNAMGWYRQAPGKERELVAAISSDDSTNYADSVKGRFTISRDNAKNTVYLQMNSLKPEDTAVYYCNADYYYGYEYDYWGQGSQVTVSS` ? low polyreactivity

How about `QLQLVESGGGLVQAGGSLRLSSAASGIIRVNAMGWNIQAPGKQRELVATITNVGSTNYADSVKGRFTISRDNAKNTVYLQMNSLKPEDTAVYYCAAEYDGPFYSFYPEQRYYWGQGTQVTVSS` ? low polyreactivity

***
Name the reported polyreactivity (PSR sort gate) value associated with the sequence `QVQLVESGGGLVQAGGSLRLSCAASGRTFKNYAMGWYRQAPGKERELVAAITSGGITNYADSVKGRFTISRDNAKNTVYLQMNSLKPEDTAVYYCNTRRGWRDFDYWGQGTQVTVSS` low polyreactivity

---

- testProtocol: yeast display, Sf9 membrane polyspecificity reagent, FACS + sequencing; frameworks hold sequencing errors
valueType: polyreactivity (PSR sort gate)

Name the reported polyreactivity (PSR sort gate) value associated with the sequence `QVQLVESVGGLVQAGGSHRLSCAASGSTFYRYAMGWYRQAPGKERELVAAISRSGGTTYYADSVKGRFTISRDNAKNTVYLQMNSLKPDDTAVYYCNARGRYEYGYWGQGTEVTVSS` high polyreactivity

How about `QVQLVESGGGLVQAGGSLRLSCAASGRISARYVMGWYRQAPGKERELVAAISWSGDRTYYADSVKGRFTISRDNAKNTVYLQMNSLKPEDTAVYYCATGFYSRLAYGYGYWGQGSQVTVSS` ? high polyreactivity

---

- testProtocol: yeast display, Sf9 membrane polyspecificity reagent, FACS + sequencing; frameworks hold sequencing errors
valueType: polyreactivity (PSR sort gate)

Below: 10 sequences and their reported polyreactivity (PSR sort gate).
Name the reported polyreactivity (PSR sort gate) value associated with the sequence `QVQLVESGGGLVQAGGSLRLSCAASGSIFKVYAMGWYRQAPGKERELVAAITGGGRTYYADSVKGRFTISRDNAKNTVYLQMNSLKPEDTAVYYCNAVRGGYHVRYDYWGQGTQVTVSS` high polyreactivity

How about `QVQLVESGGGFVQAGGSLRLSCAAYGRTFGRYAMGWYRQAPGKERELVAAIRSGGSTYYADSVKGRFTISRDNAKNTVYLQMNSLKPEDTAVYYCAADIARHLTVFAYYRLDYWGQGTQVTVSS` ? low polyreactivity

How about `QVQLVESGGCLVQAGGSLRFTCAASGSIFPYYAMGWYRQAPGKERELVAAISGSGGSTYYADSVTGRFTISRDNAKYTVYLQMNSLNQEDTAVYYCAARPFARYEYWGQGTQVTVSS` ? low polyreactivity

How about `QVQLVESGGGLVQAGGSLRLSCAASGFIFYNYALGWYRQAPGKERELVAAISASGGRSYYADSVKGRFTISRDNAKNTVYLQMNRLKPEDTAVYYCNARVNYKGYDYWGQGTQVTVSS` ? high polyreactivity

How about `QVQLVESGGGLVQAGGSLRLSSAASGRIFYFNARGWYRQAPGKARELVAGISSGGSTDYADSVKGRFTISRDNAKNTVDLQMNSLKPEDTAVYYCATRRSRYSYSGYWGQATQVTVSS` ? high polyreactivity

How about `QVQLVETGGGLVQAGGILLLSCAASRIIFPWYTMGWYRQAPGKERELVAAINYSSGDTYADSVKGRFTISRDNAKNTVYLQMNSLKPEDTAVYYCDAEDPEYATYWYKYGYWGLGTQVTVSS` ? low polyreactivity

How about `QVQLVESGGGLVQAGGSLRLSCAASGRIFSYYAMGWYRQAPGKERELVAAITKSGGSTFYADSVKGRFTISRDNAKNTVYLQMNSLKPEDTAVYYCAAEVTLEDWGYSWKYDYLGQGTQVTVSS` ? high polyreactivity

How about `QVQLVESGGGLVQAGGSLRLTCAASGSIFSHYAMGWYRQATGKERELVAAITYGGGSTYYADSVKGRFTISRDIAMNTVYLQMNSLKPDDTAVYYCAKEFKYWGYPYDYWGQGTQVTVSS` ? low polyreactivity

How about `QVQLVESGGGLVQAGGSLRLSCAASGFTFNWNTMGWYRQAPGKERELVAAISSGGITYYADSVKGRFTISRDNAKNTVYLQMNSLKPEDTAVYYCNVRPFRPHNRYGYWGQFTQVTVSS` ? high polyreactivity

How about `QVQLVESGGGLVQAGGSLRLSCAASGRTIYFYTMGWYRQAPGKERELVATAITSGGCTNYAVSVKGRFTISRDNAKNTVHLLMNSRKPEDTAVYYCAAVPTEFGNRLEYDYWGQGTQVTVSS` ? low polyreactivity

***
Name the reported polyreactivity (PSR sort gate) value associated with the sequence `QVQLVESGGGLVQAGGSLRLSCPASGRIFGVYAMGWYRQAPGKESELVAAIRYRGGSTYYADSVKGRFTISRDNAKNSVYLQMNSLIPEDTAVYYCAAEVWGVGYYAPYGYWGQGTQVTVSS` high polyreactivity

How about `QVQLVESVGGLVQAGGSLRLSCAASGIIFVYYVMGWYRQAPGKERELVASIDGSGGSTNYADSVKGRFTISRDNAKNTVYLQMNSLKPEDTAVYYCNADNILYWSTLDYWGQGTQVTVSS` ? low polyreactivity

How about `QVQLEDSGGGLVQAGGSLRLSCAASGRTLYLYAMGWYRQAPGKERELVAAIDWRGTSTYYADSVKGRFTISRDNAKNTVYLEMNSLKPEDTAVYYCNARFRSYLRWYQRDYWGQGTKVTVSS` ? low polyreactivity

---

- testProtocol: yeast display, Sf9 membrane polyspecificity reagent, FACS + sequencing; frameworks hold sequencing errors
valueType: polyreactivity (PSR sort gate)

Below: 5 sequences and their reported polyreactivity (PSR sort gate).
Name the reported polyreactivity (PSR sort gate) value associated with the sequence `QVQLVESGGGLVQAGGSLRLSCAASGSIFQINVMGWYRQAPGKERELVAASYADSVKGRFTISRDNAKNTVYVQMNSLKPEDTAVYYCARTNPAYSIYDYWGQGTQVTVSS` low polyreactivity

How about `QVQLVESGGGLVQAGGSLRLSCAASGSILQSYAMGWSRQAPGKERELGAALSGSGGSTYYADSVKGRFTISRDNAKNTVYLQMNSLKPEDTAVYYCAKGPLYRTSRGEFGYWGQGTQVTVSS` ? low polyreactivity

How about `QVQLVESGGGLVQAGGSLRLSCAASGRILYSYAMGWYRQAPGKEREFVAAIRRSGGSTYYADSVKGRFSISRDNAKNTVYLQMNSLKPEDTAVYYCAAGRRYSGSYDYWGQGTQVTVSS` ? high polyreactivity

How about `QVQLVESGGGLVQAGGSLRLSCAASGSTFRRNTMGWYREAPGKEREFVAALSRRGGSTYYADSVKGRFTISRDNAKNTVYFQMNRLKPEDTGVYYCAAPGLSRLYNVYYWPYDYWGQGTQVTVSS` ? high polyreactivity

How about `QVQLVESGGGLVQAGGSLRLSCAASGSTLRRYAMGWYRQAPGKERELVAINSSGGITYYADSVKGRVTISRDNAKNTVYLQMNSLKPEDTAVYYCNARRPAPGYGYDYWGQGTQVTVSS` ? low polyreactivity

***
Name the reported polyreactivity (PSR sort gate) value associated with the sequence `QVQLVESGGGLVQAGGSLRLSCAASGRTFGKNAMGWYRQAPGKERELVAAISTSGGRTYYADSVMGRFTISRDNAKNTVYLQMNSLIPEDPAVYYCAAVLYDTRPVYGCESWGQGTQVTVSS` high polyreactivity

How about `QVQHVESGGGLVQAGGSLRLSCAASGYISVGYAMGWSRQAPGKERELVAAITESGGSTYYADSVKGRFTISRDNAKNTVYLQMNSLKPEDTAVYYCAADVIYEDRMDYWGQGTQVTVSS` ? low polyreactivity

How about `QVQLVESGGGLVQAGGSLRLSCDASGSIFDYNTMGWYRQAPGKERELIAVISGTGGSTYYGDSVKGRFTISRDNAKNTVYLEMNSLKPEDTAVYYCAAAWYYSSRAFHATWGHDYWGQGTQVTVSS` ? low polyreactivity

How about `QVQLVESGGGLVQAGGSLRLSCAASGLTFYGYAMGWYRQAPGKERELVAAIRWSGGRTYYADSVKGRFTISRDNAKNTVYLQMNSLKPEDTAVYYCAADYSRYYGGDYWGQGTQVTVSS` ? low polyreactivity
